Structures can show the parent of a compound that is named as a salt.
For each record, write down the corresponding melting point.

Just so you know, measured melting point for O=C(O)Cc1cnc(-c2ccccc2)c(Cc2nc3c(F)c(F)cc(F)c3s2)c1 (as salt: hydrochloride) came out at 205 to 207 °C (dec.)

Just so you know, measured melting point for O=C(O)Cc1ccsc1Cc1nc2c(F)c(F)cc(F)c2s1 came out at 142 to 144 °C

Just so you know, measured melting point for O=C(O)Cc1cncc(Cc2nc3c(F)c(F)cc(F)c3s2)c1 (as salt: hydrochloride) came out at 196 to 197 °C

Just so you know, measured melting point for O=C(O)Cc1ccc(Cc2nc3c(F)c(F)cc(F)c3s2)s1 came out at 132 to 133 °C

Just so you know, measured melting point for Cc1nc(C)c(Cc2nc3c(F)c(F)cc(F)c3s2)c(C)c1CC(=O)O (as salt: hydrochloride) came out at 216 to 217 °C

Just so you know, measured melting point for O=C(O)Cc1cc(Cc2nc3cc(C(F)(F)F)ccc3s2)cs1 (as salt: hydrochloride) came out at 131 to 132 °C

Just so you know, measured melting point for CCc1nc(CC)c(Cc2nc3c(F)c(F)cc(F)c3s2)cc1CC(=O)O.Cl came out at 143 to 145 °C
